Cited source: ChEMBL document CHEMBL1157726

# target: Carbonic anhydrase 2 (Homo sapiens, UniProt P00918)
# assay_method_text: Inhibition of esterase-activity of human erythrocytes CA2 by spectrophotometry
# experimental_setup: read-out: IC50
assay_metric: IC50 (µM)

(I) NS(=O)(=O)c1cc(C(=O)O)c(Cl)cc1Cl
(II) NCc1ccccn1.NS(=O)(=O)c1cc(C(=O)O)c(Cl)cc1Cl
Qu. Which numeric IC50 is bigger, that of I or that of II ? Reply with the label of the item you choose.
Ans. I
(I: 18 µM, II: 0.29 µM)

###

# target: UniProtKB P00915
# Sequence (P00915 whole entry): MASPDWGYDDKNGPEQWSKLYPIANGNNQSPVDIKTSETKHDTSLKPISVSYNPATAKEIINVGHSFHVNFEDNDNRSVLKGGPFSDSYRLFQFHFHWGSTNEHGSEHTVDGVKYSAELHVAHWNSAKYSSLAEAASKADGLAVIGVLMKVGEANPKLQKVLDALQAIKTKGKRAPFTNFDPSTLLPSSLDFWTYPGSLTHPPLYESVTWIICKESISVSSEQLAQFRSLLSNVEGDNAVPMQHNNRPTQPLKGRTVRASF
# assay_method_text: Inhibition of esterase-activity of CA1 from human erythrocytes by spectrophotometry
# experimental_setup: read-out: IC50
assay_metric: IC50 (nM)

(1) NCc1ccccn1.NS(=O)(=O)c1cc(C(=O)O)c(Cl)cc1Cl
(2) NS(=O)(=O)c1cc(C(=O)O)c(Cl)cc1Cl
Qu. Compare IC50: is it lower for 1 or for 2 ? Answer format: the label of the selected item.
Ans. 1
(1: 320 nM, 2: 3200 nM)

###

# target: UniProtKB P00918
# assay_method_text: Inhibition of human erythrocytes CA2 by Lineweaver-Burke analysis
# experimental_setup: read-out: IC50
assay_metric: IC50 (µM)

(P) NS(=O)(=O)c1cc(C(=O)O)c(Cl)cc1Cl
(Q) NCc1ccccn1.NS(=O)(=O)c1cc(C(=O)O)c(Cl)cc1Cl
Qu. Given the listed records, identify the one among P and Q with higher IC50. Return value: the label identifying the chosen record.
Ans. P
(P: 22 µM, Q: 0.22 µM)

###

# target: UniProtKB P00915
# assay_method_text: Inhibition of CA1 from human erythrocytes by Lineweaver-Burke analysis
# experimental_setup: read-out: IC50
pIC50: −log10 of the molar value.
assay_metric: pIC50

(A) NS(=O)(=O)c1cc(C(=O)O)c(Cl)cc1Cl
(B) NCc1ccccn1.NS(=O)(=O)c1cc(C(=O)O)c(Cl)cc1Cl
Qu. I need your help: which of the pair A , B has higher pIC50? Identify your selection by its label.
Ans. B
(B: 6.60, A: 5.11)
